- TESTED ON: T1, recombinant human IL-23 (hrIL-23), produced at Centocor (human, UniProt P29460 23-328)
- T1 construct: p19-p40 heterodimer; also called rhIL-23; huIL-23
- T1 sequence 1: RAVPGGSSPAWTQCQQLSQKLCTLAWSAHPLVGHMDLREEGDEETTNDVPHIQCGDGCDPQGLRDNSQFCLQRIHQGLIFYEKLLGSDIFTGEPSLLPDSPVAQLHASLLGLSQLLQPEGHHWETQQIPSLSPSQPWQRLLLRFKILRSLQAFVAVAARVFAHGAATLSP
- T1 sequence 2: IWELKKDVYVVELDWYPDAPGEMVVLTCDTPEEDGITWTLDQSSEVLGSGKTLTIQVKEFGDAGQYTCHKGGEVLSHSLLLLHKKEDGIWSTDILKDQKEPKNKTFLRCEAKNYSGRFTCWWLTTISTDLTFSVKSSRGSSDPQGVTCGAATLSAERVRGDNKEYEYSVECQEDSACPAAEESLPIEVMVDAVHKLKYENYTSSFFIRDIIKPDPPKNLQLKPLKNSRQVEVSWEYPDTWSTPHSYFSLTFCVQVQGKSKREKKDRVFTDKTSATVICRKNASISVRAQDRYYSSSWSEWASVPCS
- TEST NAME: Biacore, Fab capture
REPORTED ENDPOINT: Kd (nM)
Numbers only; they are read as nM.

# count of solved cases: 3
INSERT INTO measurements (binder, output_unit, reading) VALUES
  ('MOR04217 Fab (Fab, V domains shown, Fab) VH: QVQLVESGGGLVQPGGSLRLSCAASGFTFSSYWITWVRQAPGKGLEWVSYISSSGSSTYYADSVKGRFTISRDNSKNTLYLQMNSLRAEDTAVYYCARGTFWSFGNYFANWGQGTLVTVSS VL: DIVLTQSPATLSLSPGERATLSCRASQSIFYNLAWYQQKPGQAPRLLIYGASNRATGVPARFSGSGSGTDFTLTISSLEPEDFATYYCQQYSSEPVTFGQGTKVEIK', 'nM', 41),
  ('MOR04205 Fab (Fab, V domains shown, Fab) VH: QVQLVQSGAEVKKPGESLKISCKGSGYSFTNYWISWVRQAPGKGLEWMGWIRPGDSDTRYSPSFEGQVTISADKSISTAYLQWSSLKASDTAMYYCARHYYGMDYWGQGTLVTVSS VL: DIVLTQPPSVSGAPGQRVTISCSGSSSNIGSYYVNWYQQLPGTAPKLLIYGNTHRPSGVPDRFSGSKSGTSASLAITGLQSEDEADYYCQTYASLGPGEVFGGGTKLTVL', 'nM', 140),
  ('MOR04649 Fab (Fab, V domains shown, Fab) VH: QVQLVQSGAEVKKPGESLKISCKGSGYSFSNYWIGWVRQMPGKGLEWMGIIDPSNSYTNYSPSFQGQVTISADKSISTAYLQWSSLKASDTAMYYCARWYYKPFDVWGQGTLVTVSS VL: DIVLTQPPSVSGAPGQRVTISCTGSSSNIGSGYDVHWYQQLPGTAPKLLIYGNSKRPSGVPDRFSGSKSGTSASLAITGLQSEDEADYYCSSWTPSSVVFGGGTKLTVL', 'nM', 7);

Let us move to another entry and its Kd.
Q) Find the recorded Kd belonging to MOR04658 Fab (Fab, V domains shown, Fab) VH: QVQLVESGGGLVQPGGSLRLSCAASGFTFSSFGMSWVRQAPGKGLEWVSNISSSGSSTYYADSVKGRFTISRDNSKNTLYLQMNSLRAEDTAVYYCARYWGTPYLMQFDNWGQGTLVTVSS VL: DIALTQPASVSGSPGQSITISCTGTSSDVGGYNSVSWYQQHPGKAPKLMIYSVSSRPSGVSNRFSGSKSGNTASLTISGLQAEDEADYYCSSYDTNKPLVVFGGGTKLTVL and report it.
A) 11
